# System: CCRF-CEM
# method: NCI tumour cell line growth inhibition, 48 h
Calls of active or inactive are those of the source. Rule as the data show it: active = GI50 up to about 1.1 µM and inactive = higher.
outcome.measure: GI50

COC(=O)c1c[nH]c(=O)[nH]c1=O ... > 100 µM (inactive)
Cn1ccnc1CCc1ccc(Cl)cc1Cl ... > 100 µM (inactive)

Prompt: Which GI50 is listed for `O=C1C(N2CCN(c3ccccn3)CC2)=C(Cl)C(=O)c2ncccc21` ?
Response: 1.32 µM (inactive)

Prompt: Which GI50 is listed for `N=C/N=C/C(=S)O[C@@H]1C(=O)N2CCC[C@@]23CCCC[C@@H]13` ?
Response: > 12.5 µM (inactive)

Prompt: Which GI50 is listed for `CCOC(=O)c1nc2c(Cl)c3ncccc3cc2[nH]c1=O` ?
Response: 17.5 µM (inactive)

Prompt: Which GI50 is listed for `CC(=O)c1cn(-c2ccc(Cl)cc2)c(=O)c2c(N)n[nH]c12` ?
Response: > 100 µM (inactive)

* * *

# Test system: K562
# method: NCI tumour cell line growth inhibition, 48 h
The source made the active and inactive calls. Rule as the data show it: active = GI50 up to about 1.1 µM and inactive = higher.
Please answer using one outcome listed in Yes = active, No = inactive

Nn1c(-c2cccc(Cl)c2)nc2ccccc2c1=O ... No
CC(=O)O[C@H]1CCC2[C@@H]3CCC4Nc5[nH]ncc5C[C@]4(C)C3CC[C@@]21C (some centres undefined) ... No
CC1C2(C)OC(=N)C(C#N)(C(c3ccco3)O2)C1(C#N)C#N (centres undefined) ... No

Prompt: Outcome logged for CC12CC1C(c1cccc([N+](=O)[O-])c1)(c1cccc([N+](=O)[O-])c1)N=N2 (centres undefined) in this assay:
Response: No

Prompt: Outcome logged for `CN(C)C(=S)/N=c1\ssc(=S)n1C1CCCCC1` in this assay:
Response: No

Prompt: Outcome logged for Cc1[nH]c2ccccc2c1C(=O)CC1(O)C(=O)Nc2ccccc21 (centres undefined) in this assay:
Response: No

Prompt: Outcome logged for COC(=O)c1c[nH]c(=O)[nH]c1=O [ISOOROTIC ACID METHYL ESTER] in this assay:
Response: No

Prompt: Outcome logged for `NC(=O)Cn1c(=O)[nH]c(=O)c2[nH]cnc21` in this assay:
Response: No

Prompt: Outcome logged for `O=S(=O)(O)n1ccnc1` in this assay:
Response: No

* * *

# Tested on: UACC-62
# method: NCI tumour cell line growth inhibition, 48 h
Activity calls are given as the source filed them. Rule as the data show it: active = GI50 up to about 1.1 µM and inactive = higher.
outcome.measure: GI50

In the examples that follow, each entry is paired with its recorded GI50.
O=c1c(-c2c(-c3ccccc3)oc3ccc(Cl)cc3c2=O)c(-c2ccccc2)oc2ccc(Cl)cc12 ... > 82.8 µM (inactive)
O=C(C1OC1c1ccc(F)cc1)C12CC3CC(CC(C3)C1)C2 (stereo not given) ... 15.2 µM (inactive)
CCCCCCC(N)(CCCCCC)C(=O)Nn1c(C)ccc1C ... 48 µM (inactive)

Prompt: Return GI50 measured with UACC-62 given this compound: `Nc1ccc(C(=O)N2CCC[C@H]2CO)c(N)c1`
Response: > 100 µM (inactive)

Prompt: Return GI50 measured with UACC-62 given this compound: `COC(=O)C(Cc1ccc2c(c1)CCC2)Cc1ccc2c(c1)CCC2`
Response: > 100 µM (inactive)

* * *

# Test system: UO-31
# method: NCI tumour cell line growth inhibition, 48 h
Activity calls are given as the source filed them. No stated cut-off is given here; in the data, active = GI50 up to about 1.1 µM and inactive = higher.
outcome.measure: GI50

In the examples that follow, each entry is paired with its recorded GI50.
O=C(/C=C/c1ccc(OCc2ccccc2)cc1)NCc1ccc(C(=O)NCCc2c[nH]c3ccccc23)cc1 ... 35 µM (inactive)
Cc1[nH]c2ccccc2c1C(=O)CC1(O)C(=O)Nc2ccccc21 (centres undefined) ... > 100 µM (inactive)
Cc1nnc([C@@]2(C)CC[C@H]3[C@@H](CCC4=CC(=O)CC[C@@]43C)[C@@H]2CC#N)o1 ... > 100 µM (inactive)
C[C@]12CCC(=O)C=C1CC[C@@H]1[C@@H]2C(=O)C[C@@]2(C)[C@H]1CC[C@]2(O)C(=O)CO ... > 100 µM (inactive)
C/N=C(\N=c1/ss/c(=N\C)n1C)N(C)C.[O-][Cl+3]([O-])([O-])O ... > 100 µM (inactive)
CCC/N=C/c1cc(Cc2ccc(O)c(/C=N/CCC)c2)ccc1O ... 17.1 µM (inactive)
CC1=NN(c2nc(N)nc(-c3ccccc3S(N)(=O)=O)n2)C(C)(C)C1 ... 3.92 µM (inactive)
NNC(=S)N/N=C(/C(=O)Nc1ccc(Cl)c(Cl)c1)C(C1OC(=O)c2ccccc21)[N+](=O)[O-] (centres undefined) ... > 100 µM (inactive)

Prompt: Return GI50 measured with UO-31 given this compound: CC(=O)OC1CC2(C)C(OC(C)=O)CC1C2(C)C (centres undefined)
Response: > 100 µM (inactive)
